- method: Apparent permeability from basolateral to apical side in human Caco2 cells at 1 uM after 21 to 28 days
- Type: ADME, cell-based
- reported-conditions: caco-2
parameter: Papp B→A at 1 µM (nm/s)
# unit: nm/s | format: bare number

Input: State its Papp B→A at 1 µM: CC(C)(C)CC(=O)Nc1c(F)cc(C(=O)Nc2nccs2)cc1F
Output: 670

* * *

- tested-target: Adenosine receptor A2b (Homo sapiens)
- Sequence (P29275 whole entry): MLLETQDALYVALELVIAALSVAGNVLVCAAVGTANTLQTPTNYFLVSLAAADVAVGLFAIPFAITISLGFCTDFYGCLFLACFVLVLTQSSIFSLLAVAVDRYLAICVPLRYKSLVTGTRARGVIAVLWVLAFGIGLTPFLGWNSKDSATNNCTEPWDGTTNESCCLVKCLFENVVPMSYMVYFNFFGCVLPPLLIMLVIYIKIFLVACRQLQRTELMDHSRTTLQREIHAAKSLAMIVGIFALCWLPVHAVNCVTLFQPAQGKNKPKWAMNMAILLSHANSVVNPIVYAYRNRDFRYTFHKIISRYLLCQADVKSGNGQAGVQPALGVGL
- method: Displacement of [3H]-MRS1754 from human recombinant adenosine A2B receptor expressed in HEK293 cells after 120 mins
parameter: Ki
Please give the number followed by its unit.

Input: State its Ki: CC(C)(C)CC(=O)Nc1c(F)cc(C(=O)Nc2nccs2)cc1F
Output: 260 nM

* * *

- method: Oral bioavailability in Sprague-Dawley rat at 1 mg/kg
- Assay type: ADME, organism-based
- reported-conditions: in vivo
parameter: bioavailability (%)
# unit: % | format: bare number

Input: State its bioavailability: CC(C)(C)CC(=O)Nc1c(F)cc(C(=O)Nc2nccs2)cc1F
Output: 88

* * *

- tested-target: Adenosine receptor A1 (Homo sapiens) (UniProt P30542)
- Sequence (P30542 whole entry): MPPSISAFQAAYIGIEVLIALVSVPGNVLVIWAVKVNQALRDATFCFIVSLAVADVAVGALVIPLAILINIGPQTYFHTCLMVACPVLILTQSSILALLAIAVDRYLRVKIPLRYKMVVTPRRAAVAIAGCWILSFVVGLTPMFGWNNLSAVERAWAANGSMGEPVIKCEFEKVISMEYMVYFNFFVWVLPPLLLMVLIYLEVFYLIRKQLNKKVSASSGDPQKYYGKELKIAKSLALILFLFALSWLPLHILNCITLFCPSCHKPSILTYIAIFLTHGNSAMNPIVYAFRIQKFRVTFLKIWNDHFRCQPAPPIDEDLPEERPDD
- method: Displacement of [3H]-DPCPX from human adenosine A1 receptor expressed in CHO cells at 10 uM after 30 mins by scintillation counting
- Type: cell-based
parameter: inhibition (%)
# unit: % | format: bare number

CC(C)(C)CC(=O)Nc1ccc(C(=O)Nc2nccs2)cc1
39
CC(C)CC(=O)Nc1ccc(C(=O)Nc2nccs2)cc1
64
Cc1ccccc1C(=O)Nc1ccc(C(=O)Nc2nccs2)cc1
47
CC(C)(C)CC(=O)Nc1ccc(C(=O)Nc2nccs2)c(Cl)c1
14
CCC(=O)Nc1ccc(C(=O)Nc2nccs2)cc1
31
Cc1cc(NC(=O)CC(C)(C)C)ccc1C(=O)Nc1nccs1
36
CCCC(=O)Nc1ccc(C(=O)Nc2nccs2)cc1
54

Switching to the query record.
Input: State its inhibition: CCCCC(=O)Nc1ccc(C(=O)Nc2nccs2)cc1
Output: 69

* * *

- method: Tmax in Sprague-Dawley rat at 1 mg/kg, po
- Type: ADME, organism-based
- Set-up: dose 1 mg/kg, route oral
- reported-conditions: in vivo
parameter: Tmax (min)
# unit: min | format: bare number

Input: State its Tmax: CC(C)(C)CC(=O)Nc1c(F)cc(C(=O)Nc2nccs2)cc1F
Output: 30

Where do the numbers come from? From ChEMBL document CHEMBL1671809.
